# Tested system: human TLR8 (Homo sapiens, UniProt Q9NR97)
# Assay info: TLR8 inhibition reporter assay (HEK-Blue SEAP reporter, R848 stimulation)
# Assay conditions: HEK-Blue cells overexpressing human TLR8, SEAP reporter, R848 15.9 μM, 22 hour incubation
Experimental endpoint: IC50 (nM)
Number in nM, nothing else.

INSERT INTO results (compound, units_symbol, reported) VALUES
  ('Cc1cc(-c2[nH]c3ccc(C4CCNCC4)cc3c2C(C)C)cn(CC2CC2)c1=O [Example 34]', 'nM', 48),
  ('CCn1cc(-c2[nH]c3ccc(C4CCN(C5COC5)CC4)cc3c2C(C)C)cc(C)c1=O [Example 204]', 'nM', 18),
  ('Cc1c(-c2[nH]c3ccc(C4CCNCC4)cc3c2C(C)C)cc(C#N)c(=O)n1C [Example 23]', 'nM', 15.1),
  ('CC(C)CN1CCC(c2ccc3[nH]c(-c4cc(-c5cncnc5)c(=O)n(C)c4)c(C(C)C)c3c2)CC1 [Example 256]', 'nM', 1.7),
  ('Cc1cc(-c2[nH]c3ccc(C4CCN([C@@H]5CCNC5=O)CC4)cc3c2C(C)C)cn(C)c1=O [Example 123]', 'nM', 8);

Req: Retrieve IC50 measured for CCCN1CCC(c2ccc3[nH]c(-c4cc(-c5cccc(OC)c5)c(=O)n(C)c4)c(C(C)C)c3c2)CC1 [Example 340] and print it.
Resp: 16.6

Req: Retrieve IC50 measured for CC(C)c1c(-c2cc(C#N)c(=O)n(C)c2)[nH]c2ccc(C3CCNCC3)cc12 [Example 47] and print it.
Resp: 41.1

Req: Retrieve IC50 measured for CCCN1CCC(c2ccc3[nH]c(-c4cc(-c5cncc(C)c5)c(=O)n(C)c4)c(C(C)C)c3c2)CC1 [Example 332] and print it.
Resp: 1.1

Req: Retrieve IC50 measured for Cc1cc(-c2[nH]c3ccc(C4CCNCC4)cc3c2C(C)C)cn(CC(C)(C)O)c1=O [Example 43] and print it.
Resp: 157

Req: Retrieve IC50 measured for CC(C)c1c(-c2cc(-c3cncnc3)c(=O)n(C)c2)[nH]c2ccc(C3CCN(CC4CCOCC4)CC3)cc12 [Example 100] and print it.
Resp: 2.3

---

# Tested system: UniProt:Q9NR96
# Sequence (Q9NR96 26-1032): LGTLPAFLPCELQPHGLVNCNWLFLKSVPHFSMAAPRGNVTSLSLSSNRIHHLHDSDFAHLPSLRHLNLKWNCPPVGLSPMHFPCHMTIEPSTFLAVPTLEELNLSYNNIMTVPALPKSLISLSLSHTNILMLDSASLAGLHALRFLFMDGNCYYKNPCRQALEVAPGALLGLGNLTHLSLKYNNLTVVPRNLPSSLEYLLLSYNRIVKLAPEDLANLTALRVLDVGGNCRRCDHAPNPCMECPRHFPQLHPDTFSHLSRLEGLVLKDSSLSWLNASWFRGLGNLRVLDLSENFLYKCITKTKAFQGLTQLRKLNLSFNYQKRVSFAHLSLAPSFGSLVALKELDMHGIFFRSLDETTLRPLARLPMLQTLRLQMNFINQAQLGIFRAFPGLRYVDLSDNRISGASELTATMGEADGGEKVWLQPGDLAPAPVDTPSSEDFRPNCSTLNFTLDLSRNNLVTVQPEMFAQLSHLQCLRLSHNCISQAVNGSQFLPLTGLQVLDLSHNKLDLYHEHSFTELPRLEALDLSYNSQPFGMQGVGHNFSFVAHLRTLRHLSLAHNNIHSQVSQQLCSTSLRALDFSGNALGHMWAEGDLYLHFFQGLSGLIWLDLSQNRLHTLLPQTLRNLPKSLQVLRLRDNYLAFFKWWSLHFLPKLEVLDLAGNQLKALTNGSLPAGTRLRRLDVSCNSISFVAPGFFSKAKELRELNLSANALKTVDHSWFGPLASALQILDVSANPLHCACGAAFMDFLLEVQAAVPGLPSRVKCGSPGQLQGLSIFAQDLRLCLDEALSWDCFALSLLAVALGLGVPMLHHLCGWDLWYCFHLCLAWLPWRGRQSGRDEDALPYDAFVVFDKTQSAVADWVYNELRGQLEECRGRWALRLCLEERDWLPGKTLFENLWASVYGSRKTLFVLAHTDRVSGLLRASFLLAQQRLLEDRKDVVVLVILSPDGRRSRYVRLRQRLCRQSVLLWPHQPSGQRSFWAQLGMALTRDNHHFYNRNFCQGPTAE
# Assay info: TLR9 inhibition reporter assay (HEK-Blue SEAP reporter, ODN2006 stimulation)
# Assay conditions: HEK-Blue cells overexpressing human TLR9, SEAP reporter, ODN2006 5 nM, 22 hour incubation
Note to self: use y only for IC50 readings below 3 µM; a reading exactly at 3 µM still gets n.

INSERT INTO results (compound, class_label) VALUES
  ('Cc1cc(-c2[nH]c3ccc(C4CCN(C(=O)CN5CCCC5=O)CC4)cc3c2C(C)C)cn(C)c1=O', 'n'),
  ('Cc1cc(-c2[nH]c3ccc(C4CCN(CCC(C)C)CC4)cc3c2C(C)C)cn(C)c1=O', 'y'),
  ('CC(C)c1c(-c2cc(-c3cccnc3)c(=O)n(C)c2)[nH]c2ccc(C3CCN(CCO)CC3)cc12', 'y'),
  ('Cc1cc(-c2[nH]c3ccc(C4CCN(C5CCC(C(F)(F)F)CC5)CC4)cc3c2C(C)C)cn(C)c1=O (stereo not shown) [Example 231]', 'n'),
  ('CNC(=O)CN1CCC(c2ccc3[nH]c(-c4cc(C#N)c(=O)n(C)c4C)c(C(C)C)c3c2)CC1', 'n'),
  ('CNCCN1CCC(c2ccc3[nH]c(-c4cc(C)c(=O)n(C)c4)c(C(C)C)c3c2)CC1', 'y');

Req: Please indicate whether the reported IC50 of Cc1c(-c2[nH]c3ccc(C4CCN(CC(C)(C)O)CC4)cc3c2C(C)C)cn(C)c(=O)c1C is strictly below 3 µM.
Resp: n

Req: Please indicate whether the reported IC50 of CC(C)c1c(-c2cc(-c3cncnc3)c(=O)n(C)c2)[nH]c2ccc(C3CCN(CC4CCOC4)CC3)c(F)c12 (stereo not shown) is strictly below 3 µM.
Resp: y

Req: Please indicate whether the reported IC50 of COCCN1CCC(c2ccc3[nH]c(-c4cc(-c5cncnc5)c(=O)n(C)c4)c(C(C)C)c3c2)CC1 is strictly below 3 µM.
Resp: y

Req: Please indicate whether the reported IC50 of CCCn1cc(CN2CCC(c3ccc4[nH]c(-c5cc(C)c(=O)n(C)c5)c(C(C)C)c4c3)CC2)cn1 is strictly below 3 µM.
Resp: n

---

Readings of pIC50 for the listed compounds
# Tested system: human TLR8 (Homo sapiens, UniProt Q9NR97)
# Sequence (Q9NR97 27-1041): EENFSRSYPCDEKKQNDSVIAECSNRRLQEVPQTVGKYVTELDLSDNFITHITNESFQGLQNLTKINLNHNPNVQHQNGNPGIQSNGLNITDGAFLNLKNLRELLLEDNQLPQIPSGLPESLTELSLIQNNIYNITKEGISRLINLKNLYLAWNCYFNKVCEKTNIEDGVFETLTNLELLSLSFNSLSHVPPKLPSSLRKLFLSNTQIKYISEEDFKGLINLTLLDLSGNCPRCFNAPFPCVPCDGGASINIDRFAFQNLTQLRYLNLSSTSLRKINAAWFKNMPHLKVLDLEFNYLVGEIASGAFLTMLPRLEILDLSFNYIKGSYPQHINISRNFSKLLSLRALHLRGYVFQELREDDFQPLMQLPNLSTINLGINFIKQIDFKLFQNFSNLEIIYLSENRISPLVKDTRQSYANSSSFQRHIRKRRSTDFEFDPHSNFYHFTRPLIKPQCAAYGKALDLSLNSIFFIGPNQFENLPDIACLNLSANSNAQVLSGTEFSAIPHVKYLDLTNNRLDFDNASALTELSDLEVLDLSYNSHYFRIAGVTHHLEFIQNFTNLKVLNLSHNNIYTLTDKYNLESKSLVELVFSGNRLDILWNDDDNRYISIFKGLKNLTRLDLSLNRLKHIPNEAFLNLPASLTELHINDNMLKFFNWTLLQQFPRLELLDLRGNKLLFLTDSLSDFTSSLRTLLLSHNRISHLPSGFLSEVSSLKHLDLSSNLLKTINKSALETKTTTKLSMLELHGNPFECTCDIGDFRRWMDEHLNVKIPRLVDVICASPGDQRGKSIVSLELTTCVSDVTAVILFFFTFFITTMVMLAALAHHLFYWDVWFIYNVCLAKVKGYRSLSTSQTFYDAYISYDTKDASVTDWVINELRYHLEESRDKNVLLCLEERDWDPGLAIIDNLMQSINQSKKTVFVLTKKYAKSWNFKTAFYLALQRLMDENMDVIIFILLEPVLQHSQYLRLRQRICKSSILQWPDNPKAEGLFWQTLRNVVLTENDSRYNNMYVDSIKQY
# Assay info: TLR8 inhibition reporter assay (HEK-Blue SEAP reporter, R848 stimulation)
# Assay conditions: HEK-Blue cells overexpressing human TLR8, SEAP reporter, R848 15.9 μM, 22 hour incubation
For clarity, pIC50 is expressed as the negative log10 of concentration in mol/L.

Below, each entry is followed by its recorded pIC50 result.
INSERT INTO measurements (compound, experimental_endpoint, reported) VALUES
  ('Cc1c(-c2[nH]c3ccc(C4CCNCC4)cc3c2C(C)C)nn(C)c(=O)c1C [Example 17]', 'pIC50', 7.91),
  ('Cc1c(-c2[nH]c3ccc(C4CCN(C5CCCC5)CC4)cc3c2C(C)C)cn(C)c(=O)c1Cl [Example 97]', 'pIC50', 8.01),
  ('Cc1cc(-c2[nH]c3ccc(C4CCN(CC(=O)N5CC[C@@H](O)C5)CC4)cc3c2C(C)C)cn(C)c1=O [Example 120]', 'pIC50', 7.94),
  ('Cc1c(-c2[nH]c3ccc(C4CCN(CCCC(F)(F)F)CC4)cc3c2C(C)C)cn(C)c(=O)c1Cl [Example 105]', 'pIC50', 7.97);

Req: Retrieve pIC50 measured for Cc1c(-c2[nH]c3ccc(C4CCN(CC#N)CC4)cc3c2C(C)C)cn(C)c(=O)c1Cl [Example 96] and print it.
Resp: 7.84

Req: Retrieve pIC50 measured for COCCCN1CCC(c2ccc3[nH]c(-c4cn(C)c(=O)c(Cl)c4C)c(C(C)C)c3c2)CC1 [Example 99] and print it.
Resp: 7.99

Req: Retrieve pIC50 measured for CCn1cc(-c2[nH]c3ccc(C4CCN(C5CCOCC5)CC4)cc3c2C(C)C)c(C)c(C)c1=O [Example 208] and print it.
Resp: 8.15

Req: Retrieve pIC50 measured for Cc1c(-c2[nH]c3ccc(C4CCN(CCC(C)(C)O)CC4)cc3c2C(C)C)cn(C)c(=O)c1C [Example 73] and print it.
Resp: 8.48

Req: Retrieve pIC50 measured for Cc1cc(-c2[nH]c3ccc(C4CCN(C5CCC(C(C)(C)O)CC5)CC4)cc3c2C(C)C)cn(C)c1=O (centres unmarked) [Example 268] and print it.
Resp: 8.18

Req: Retrieve pIC50 measured for Cc1cc(-c2[nH]c3ccc(C4CCN(Cc5cc(OC(F)F)ccc5F)CC4)cc3c2C(C)C)cn(C)c1=O [Example 78] and print it.
Resp: 7.19

Req: Retrieve pIC50 measured for Cc1nc(-c2[nH]c3ccc(C4CCNCC4)cc3c2C(C)C)cn(C)c1=O [Example 12] and print it.
Resp: 7.54

Req: Retrieve pIC50 measured for Cc1cc(-c2[nH]c3ccc(C4CCN(C(=O)C[C@H]5CCCN5)CC4)cc3c2C(C)C)cn(C)c1=O [Example 306] and print it.
Resp: 7.57

Req: Retrieve pIC50 measured for CC(C)c1c(-c2cc(-c3cccnc3)c(=O)n(C)c2)[nH]c2ccc(C3CCN(CCO)CC3)cc12 [Example 236] and print it.
Resp: 8.01

Req: Retrieve pIC50 measured for COCc1cc(-c2[nH]c3ccc(C4CCN(C5COC5)CC4)cc3c2C(C)C)cn(C)c1=O [Example 346] and print it.
Resp: 7.06
